Exercise: state measured Percent Effect for each of the compounds provided.
biological target: Shiga toxin 2 (Escherichia coli O157:H7) (UniProt P09385+P09386); assay: E. coli 0.157:H7 Shiga Toxin SOP - stx2 screening assay; format: functional; set-up: scale not given: direction of the effect not stated beside the values; conditions: 30 µM
Answers are plain numbers, in %.

Here is how some compounds turned out for Percent Effect.
compound	Percent Effect / %
Cc1ccc(C#N)cc1NC(=O)NC1CCCN(c2ncccn2)C1 (stereo not given)	-2.85
CCc1n[nH]c(C2CN(CCc3ccncc3)CCO2)n1 (stereo not given)	11.6
CC(=O)N1CCN(CCNS(=O)(=O)c2ccc(C)c(F)c2)CC1	5.72

Give Percent Effect for each of the items listed below.
1. COCCN1C[C@H]2[C@@H](C1)N(C(=O)COc1ccccc1)CC[C@H]2OC
2. CN(C)C(=O)N1C[C@H]2CN(Cc3cccc(F)c3)C(=O)[C@H]2C1

-- reply
1. -14.5
2. -2.65
